Origin of the recorded values: paper PMC5540273

system: MYO3A; settings: concentration: 1 μM, replicates: in singlicate; n = 1;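 also: KINOMEscan kinase panel screen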
measurement.type: %Inh (%)
Respond numerically; units are % and should not be typed.

Please review the following examples before continuing.
{"columns": ["compound", "measurement.type", "measured.number"],
 "data": [
  ["CC(C)c1cc(-c2ccc3c(N)n[nH]c3c2)nc(N)n1", "%Inh", 9],
  ["Nc1cccc(-c2ccc3c(N)n[nH]c3c2)n1", "%Inh", 15],
  ["Cn1cnc2c(N)ncnc21", "%Inh", 2],
  ["O=C(Nc1n[nH]c2cc(-c3ccsc3)ccc12)C1CC1", "%Inh", 12]
]}

// next entry
# %Inh of COc1ccc(Nc2nccc(N3CCC(NC(=O)c4cc5ccccc5s4)C3)n2)cc1 (centres unmarked) = 11
